System: A. flavus 3357
Experiment: Heat-sensitizing antimicrobial bioassay (MFC) in A. flavus 3357
Format: cell-based, Aspergillus flavus
Details: 22.0° C. (RT), 90 seconds, PBS
ENDPOINT_NAME: minimum fungicidal concentration (MFC; >99.999% fungal death)

• CCC(C)n1ncn(-c2ccc(N3CCN(c4ccc(OCC5COC(Cn6cncn6)(c6ccc(Cl)cc6Cl)O5)cc4)CC3)cc2)c1=O (stereo not drawn) [Itraconazole] = 64 μg/mL; ppm
• Cc1cc(C2CC2)nc(Nc2ccccc2)n1 [Cyprodinil] = >64 μg/mL; ppm
• CC[C@H](C)C[C@H](C)CCCCCCCCC(=O)N[C@H]1C[C@@H](O)[C@@H](NCCN)NC(=O)[C@@H]2[C@@H](O)CCN2C(=O)[C@H]([C@H](O)CCN)NC(=O)[C@H]([C@H](O)[C@@H](O)c2ccc(O)cc2)NC(=O)[C@@H]2C[C@@H](O)CN2C(=O)[C@H]([C@@H](C)O)NC1=O [Caspofungin] = >64 μg/mL; ppm
• COC(=O)N(OC)c1ccccc1COc1ccn(-c2ccc(Cl)cc2)n1 [Pyraclostrobin] = >64 μg/mL; ppm
• N#Cc1c[nH]cc1-c1cccc2c1OC(F)(F)O2 [Fludioxonil] = >64 μg/mL; ppm
• Cc1cc(C)nc(Nc2ccccc2)n1 [Pyrimethanil] = >64 μg/mL; ppm
